target.or.system: Upc2 (UniProt Q12151)
Sequence: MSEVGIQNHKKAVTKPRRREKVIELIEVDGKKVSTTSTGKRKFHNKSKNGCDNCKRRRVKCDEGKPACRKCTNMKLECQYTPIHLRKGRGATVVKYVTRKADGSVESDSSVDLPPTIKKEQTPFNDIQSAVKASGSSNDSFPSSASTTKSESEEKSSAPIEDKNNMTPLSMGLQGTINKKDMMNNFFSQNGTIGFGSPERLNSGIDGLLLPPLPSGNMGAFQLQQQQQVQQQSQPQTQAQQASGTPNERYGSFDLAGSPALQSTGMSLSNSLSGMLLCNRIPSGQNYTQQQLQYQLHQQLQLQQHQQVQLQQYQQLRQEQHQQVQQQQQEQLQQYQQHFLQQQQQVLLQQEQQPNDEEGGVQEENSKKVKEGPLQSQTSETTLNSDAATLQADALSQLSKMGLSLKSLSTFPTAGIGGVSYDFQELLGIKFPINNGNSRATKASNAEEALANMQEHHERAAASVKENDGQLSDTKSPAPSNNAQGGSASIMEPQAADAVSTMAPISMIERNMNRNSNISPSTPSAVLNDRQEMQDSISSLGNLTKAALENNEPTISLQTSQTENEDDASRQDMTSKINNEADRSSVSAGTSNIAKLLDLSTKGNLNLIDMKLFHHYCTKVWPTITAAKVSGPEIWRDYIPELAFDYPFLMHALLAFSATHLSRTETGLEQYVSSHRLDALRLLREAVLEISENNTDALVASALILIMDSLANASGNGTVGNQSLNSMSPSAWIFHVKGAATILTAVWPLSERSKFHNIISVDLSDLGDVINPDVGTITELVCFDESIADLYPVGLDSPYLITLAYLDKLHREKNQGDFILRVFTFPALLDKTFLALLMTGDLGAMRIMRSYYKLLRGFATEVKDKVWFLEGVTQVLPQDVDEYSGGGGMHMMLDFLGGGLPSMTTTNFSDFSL
experiment.notes: PBM E-score (8-mer binding enrichment) (E-score (-0.5 to 0.5)); higher = stronger / more preferred TF binding
condition.set: protein concentration: 200 nM; construct: GST-full length
Whole data set: some 33,000 sequences, median “E-score (-0.5 to 0.5)” near -0.043, cut for the highest 2% near 0.37. What follows is part of a selection rich in the highest values, with near analogues and random picks from the rest.
measurement.kind: PBM E-score
Answer using only a numeral; do not append any unit.

>  <residues>
GTATAGAA

>  <measurement.kind>
PBM E-score

>  <test.value>
0.345

$$$$
>  <residues>
CCATAGAA

>  <measurement.kind>
PBM E-score

>  <test.value>
-0.25

$$$$
>  <residues>
AAGGTACG

>  <measurement.kind>
PBM E-score

>  <test.value>
0.393

$$$$
>  <residues>
CCGACGTA

>  <measurement.kind>
PBM E-score

>  <test.value>
0.225

$$$$
>  <residues>
CTAATTCA

>  <measurement.kind>
PBM E-score

>  <test.value>
-0.0938

$$$$

Consider CCGGAGCA . Its measured PBM E-score is -0.0221

Looking up AGCATTAT , I found its PBM E-score recorded as -0.183
